Each recorded value in this set is attributed to ChEMBL document CHEMBL1124364.

# Tested on: Staphylococcus epidermidis
# Experimental Protocol: Minimum inhibitory concentration against Staphylococcus epidermidis (222)
# Assay type: functional
# Experimental Context: Staphylococcus epidermidis; read-out: MIC
Listed here are molecules together with their documented MIC.

See these solved cases before continuing.
>>> df
                                   molecule  recorded_value
0  CO/N=C(/C(=O)N[C@@H]1C(=O)N2C(C(=O)O)=C(S(=O)(=O)C(C)C)CC[C@H]12)c1csc(N)n1        16 µg/mL
1  CO/N=C(/C(=O)N[C@@H]1C(=O)N2C(C(=O)O)=C(S(=O)(=O)c3c(C)noc3C)CC[C@H]12)c1csc(N)n1         8 µg/mL
2  CO/N=C(/C(=O)N[C@@H]1C(=O)N2C(C(=O)O)=C(S(=O)(=O)C3CC3)CC[C@H]12)c1csc(N)n1         8 µg/mL
3  CCS(=O)(=O)C1=C(C(=O)O)N2C(=O)[C@@H](NC(=O)/C(=N/OC)c3csc(N)n3)[C@H]2CC1        16 µg/mL
4  CO/N=C(/C(=O)N[C@@H]1C(=O)N2C(C(=O)O)=C(S(=O)(=O)c3cccnc3)CC[C@H]12)c1csc(N)n1        32 µg/mL
5  CS(=O)(=O)C1=C(C(=O)O)N2C(=O)[C@@H](NC(=O)COc3ccccc3)[C@H]2CC1 (stereo in doubt; 7)       0.5 µg/mL

response.value for "CO/N=C(/C(=O)N[C@@H]1C(=O)N2C(C(=O)O)=C(S(=O)(=O)c3ccccc3)CC[C@H]12)c1csc(N)n1" (field: MIC) = 16 µg/mL

Sample "CO/N=C(/C(=O)N[C@@H]1C(=O)N2C(C(=O)O)=C(S(C)(=O)=O)CC[C@H]12)c1csc(N)n1" ; MIC observed: 32 µg/mL

Per the record, "CCCS(=O)(=O)C1=C(C(=O)O)N2C(=O)[C@@H](NC(=O)/C(=N/OC)c3csc(N)n3)[C@H]2CC1" has MIC of 8 µg/mL

In plain terms, N[C@@H](C(=O)N[C@@H]1C(=O)N2C(C(=O)O)=C(Cl)CS[C@H]12)c1ccccc1 [CEFACLOR ANHYDROUS] has a documented MIC of 4 µg/mL

Lab note: measured MIC of "CO/N=C(/C(=O)N[C@@H]1C(=O)N2C(C(=O)O)=C(S(=O)(=O)c3cccs3)CC[C@H]12)c1csc(N)n1" was 16 µg/mL

GET /value?item= "CO/N=C(\C(=O)N[C@@H]1C(=O)N2C(C(=O)O)=C(COC(C)=O)CS[C@H]12)c1csc(N)n1" &field=MIC returns 2 µg/mL
